Origin of values: the supplement of paper PMC10646978

NF-kB reporter overview
Test system: RAW-Dual (murine macrophage reporter line)
PROTOCOL_DETAILS: NF-kB reporter (SEAP) activity fold change vs agonist alone; higher = enhanced NF-kB activity
CONDITION_DESCRIPTION: modulator concentration 10 µM; agonist: MPLA […]
API note: the answer field is a bare number with no unit suffix.

Below: 8 molecules and their reported NF-kB reporter.
{"columns": ["MOLECULE", "NF-kB reporter"],
 "data": [
  ["O=C(NCCc1nc(C2CC2)cc(C(F)(F)F)n1)c1c(F)cccc1Cl", 0.943],
  ["NC(=O)COc1ccc(Nc2nnc(-c3ccccc3)c3ccccc23)cc1", 1.08],
  ["COc1ccc(Cl)cc1NS(=O)(=O)c1c(C)cc(C)cc1C", 1.46],
  ["O=C(Nc1ccc(S(=O)(=O)Nc2nccs2)cc1)c1c(F)cccc1F", 0.922],
  ["O=C(NCCN1CCOCC1)c1cc2nc(-c3ccccc3)cc(C(F)(F)F)n2n1", 0.933],
  ["CC1(C)CC(=O)C2=C(C1)OC(N)=C(C#N)C2C1CC=CCC1 (stereo unspecified)", 1.11],
  ["CCN(CC)c1ccc(C=NNC(=O)c2ccncc2)c(O)c1", 5.41],
  ["Cc1ccc(C(CNC(=O)Cc2cccc3ccccc23)N(C)C)cc1 (stereo unspecified)", 1.06]
]}

For `CCCCCCCCCCCCCCCCOc1nc2ccc(C)cc2c(=O)o1` the molecule record lists NF-kB reporter as 0.961

molecule CC(O)c1cn(-c2cccc(C(F)(F)F)c2)nn1 (stereo unspecified) , NF-kB reporter observed: 1.04

Sample `O=C(C(Cl)Cl)N1CCN(Cc2ccccc2)CC1` ; NF-kB reporter observed: 0.709

====

Test system: RAW-Dual (murine macrophage reporter line)
PROTOCOL_DETAILS: NF-kB reporter (SEAP) activity fold change vs agonist alone; higher = enhanced NF-kB activity
CONDITION_DESCRIPTION: modulator concentration 10 µM; agonist: CpG ODN 1826 0.5 ug/mL
Overview of reported NF-kB reporter across a group of molecules:
In your answer, state the number alone without any accompanying words.

{"columns": ["MOLECULE", "ENDPOINT_VALUE"],
 "data": [
  ["CCOC(=O)C1=C(CC)NC2=C(C(=O)CCC2)C1c1ccccc1I (stereo unspecified)", 0.996],
  ["O=C(O)CCCNC(=O)c1ccccc1C(=O)O", 0.896],
  ["O=C(NCC1CN(c2ccc(N3CCOCC3=O)cc2)C(=O)O1)c1ccc(Cl)s1 (stereo unspecified)", 1.36]
]}

Value of measured NF-kB reporter for the entry `O=[N+]([O-])c1ccc2nc(Cl)sc2c1` : 1.71

Lab note: measured NF-kB reporter of `CC(=O)Nc1ccc(C(=O)Nc2ccccc2)c(NC(C)=O)c1` was 1.11

# NF-kB reporter of `CC(C)=CCC/C(C)=C/CC/C(C)=C/CSc1ccccc1C(=O)O` = 1.32

Notebook: `CN(C)CCC=C1c2ccccc2CCc2ccccc21.Cl` , NF-kB reporter read as 0.903

Per the record, Cl.O=C1c2cccc3c2C(CCC3)CN1C1CN2CCC1CC2 (stereo unspecified) has NF-kB reporter of 0.77

Form field NF-kB reporter, entry CCCCSc1nnc2c(n1)OC(c1cccc(C)n1)Nc1ccc(Br)cc1-2 (stereo unspecified) : 0.922

Short answer for `N#Cc1c(N=Cc2ccc(O)cc2)sc2c1CCCC2` : NF-kB reporter was 0.688

GET /value?item= `O=c1oc2ccccc2c(O)c1Cc1c(O)c2ccccc2oc1=O` &field=NF-kB reporter returns 1.06

Entry `Cc1nnc(NN=Cc2ccc(Cl)c([N+](=O)[O-])c2)[nH]c1=O` , NF-kB reporter reported as 1.08

Measured NF-kB reporter of `COc1cccc(S(=O)(=O)NCc2sc(-c3ccccc3)nc2C)c1` : 1.26

The molecule listed as CCOC(=O)CC(C)(O)P(=O)(OCC)OCC (stereo unspecified) shows NF-kB reporter equal to 1.01

Briefly, NF-kB reporter measured for `CCCCc1nc(Cl)c(CO)n1Cc1ccc(-c2ccccc2-c2nnn[nH]2)cc1` : 1.2

`N=C(N)Nc1nc(-c2ccccc2)c(-c2ccccc2)s1` yielded NF-kB reporter of 0.98

Entry under test: `CCNC(=O)c1ccc(CN2CCc3ccccc3C2)cc1` . Its NF-kB reporter was 1.12

Sure, the documented NF-kB reporter for `COc1ccc(-n2c(=O)c3c4c(sc3n3c(SC)nnc23)CCCC4)cc1` is 1.16

====

System: RAW-Dual (murine macrophage reporter line)
PROTOCOL_DETAILS: NF-kB reporter (SEAP) activity fold change vs agonist alone; higher = enhanced NF-kB activity
CONDITION_DESCRIPTION: modulator concentration 10 µM; agonist: LPS 0.1 ug/mL
PARAMETER_MEASURED: NF-kB reporter
Form: value (number only, do not type unit).

Example entries begin here.
{"columns": ["COMPOUND", "ASSAYED_SYSTEM", "NF-kB reporter"],
 "data": [
  ["CC(=O)N1CCc2ccc(NC(=O)C3(c4ccccc4)CCOCC3)cc2C1", "RAW-Dual (murine macrophage reporter line)", 1],
  ["CCC1(O)C(=O)OCc2c1cc1n(c2=O)Cc2cc3cc(O)ccc3nc2-1 (configuration not stated)", "RAW-Dual (murine macrophage reporter line)", 1.28],
  ["O=C(Cc1ccccc1)NCC(O)Cn1ccccc1=O (configuration not stated)", "RAW-Dual (murine macrophage reporter line)", 0.9],
  ["NS(=O)(=O)c1ccc2c(c1)C1C=CCC1C(C(=O)O)N2 (configuration not stated)", "RAW-Dual (murine macrophage reporter line)", 0.992]
]}

The compound listed as `CCOC(=O)C1=C(C)NC(C)=C(C(=O)OCC)C1c1ccc(OC)cc1OC` shows NF-kB reporter equal to 1.27

Entry CC(Sc1ccc(Cl)cc1)C(=O)NCc1cccnc1 (configuration not stated) — recorded NF-kB reporter = 0.846

====

Test system: RAW-Dual (murine macrophage reporter line)
PROTOCOL_DETAILS: IRF reporter (Lucia luciferase) activity fold change vs agonist alone; higher = enhanced IRF activity
CONDITION_DESCRIPTION: modulator concentration 10 µM; agonist: MPLA […]
PARAMETER_MEASURED: IRF reporter
Please state the value as a number alone, without comment.

{"columns": ["COMPOUND", "IRF reporter"],
 "data": [
  ["CC(=O)N1CC(C(=O)Nc2ccc(Br)c(C)c2)C1", 0.909],
  ["CC(C)NCC(O)COc1cccc2ccccc12 (stereo unspecified)", 0.918],
  ["Cc1ccc(-n2ncnc2-c2ccccc2C)cc1Cl", 1.65],
  ["O=C(Nc1ccc([N+](=O)[O-])cc1Br)C1CC12CCC2 (stereo unspecified)", 1.55],
  ["COC1CCN(C2CCN(S(=O)(=O)c3ccccc3)CC2)CC1", 1.03],
  ["CCN(CC)CCN1C(=O)C(O)=C(C(=O)c2ccc(C)cc2)C1c1ccccc1 (stereo unspecified)", 0.896],
  ["O=C(Cn1ncccc1=O)N1Cc2cnc(N3CCOCC3)nc2C1", 1.09],
  ["CN(C)C=C1C(=O)N(c2nc3ccccc3s2)N=C1CSc1ccc(Cl)cc1", 1.15],
  ["CC(C)(C)c1ccc(C(=O)Nc2nc3ccc([N+](=O)[O-])cc3s2)cc1", 1.1],
  ["CCOC(=O)C1=C(C)NC(C)=C(C(=O)OCC)C1c1cc(Cl)cc(Cl)c1OC", 2.23]
]}

Item: COc1ccc(C2(C#N)CCC(C(=O)O)CC2)cc1OC1CCCC1 (stereo unspecified) | IRF reporter: 1.38

====

System: RAW-Dual (murine macrophage reporter line)
PROTOCOL_DETAILS: IRF reporter (Lucia luciferase) activity fold change vs agonist alone; higher = enhanced IRF activity
CONDITION_DESCRIPTION: modulator concentration 10 µM; agonist: LPS 0.1 ug/mL
PARAMETER_MEASURED: IRF reporter
Response field accepts a number only; no unit should be typed.

{"columns": ["MOLECULE", "PARAMETER_MEASURED", "ENDPOINT_VALUE"],
 "data": [
  ["COc1ccc(C=Nn2cnnc2)cc1COc1cc(C)c(Cl)cc1C(C)C", "IRF reporter", 1.03],
  ["COc1cc(OC)c(C(=O)CCCN2CCCC2)c(OC)c1.Cl", "IRF reporter", 0.941],
  ["OC(c1cc(C(F)(F)F)nc2c(C(F)(F)F)cccc12)C1CCCCN1 (stereo unspecified) [Prestw-126]", "IRF reporter", 2.89],
  ["C=CCc1ccc(OCCCOc2ccccc2C(C)=O)c(OC)c1", "IRF reporter", 0.863]
]}

Read the next record carefully.
Reported IRF reporter of `Cc1ccc(-c2ccc3nnc(CCC(=O)NCc4ccc(C(F)(F)F)cc4)n3n2)cc1C` : 1.15
